target: recombinant human PAD4 (human, UniProt Q9UM07 1-663); test: cell-based or functional assay
Sequence (Q9UM07 whole entry): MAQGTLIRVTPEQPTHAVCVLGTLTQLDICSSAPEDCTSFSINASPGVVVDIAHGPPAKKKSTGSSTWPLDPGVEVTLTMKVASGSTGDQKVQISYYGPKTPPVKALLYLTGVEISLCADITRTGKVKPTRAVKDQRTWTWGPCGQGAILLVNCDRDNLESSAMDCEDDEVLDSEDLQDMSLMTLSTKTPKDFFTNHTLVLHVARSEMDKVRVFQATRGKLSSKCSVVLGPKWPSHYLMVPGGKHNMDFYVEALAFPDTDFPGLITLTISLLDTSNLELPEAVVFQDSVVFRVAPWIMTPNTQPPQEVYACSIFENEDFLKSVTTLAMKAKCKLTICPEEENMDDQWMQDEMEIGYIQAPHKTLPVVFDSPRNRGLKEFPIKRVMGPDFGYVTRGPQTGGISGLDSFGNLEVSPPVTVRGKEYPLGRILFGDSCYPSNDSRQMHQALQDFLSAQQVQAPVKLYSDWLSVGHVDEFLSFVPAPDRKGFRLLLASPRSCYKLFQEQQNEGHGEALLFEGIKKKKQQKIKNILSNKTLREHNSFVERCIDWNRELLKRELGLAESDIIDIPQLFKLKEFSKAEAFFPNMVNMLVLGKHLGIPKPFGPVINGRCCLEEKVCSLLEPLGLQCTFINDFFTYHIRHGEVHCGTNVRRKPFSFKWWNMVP
Numbered stars: 1 amine (or outer) side, 2 acyl side, 3 side chain; on linkers, the order of the positions; unused ones are H or OH. Square brackets hold non-standard residues; d marks the D form. Ends that are not written are not given here. O(CA) = ornithine chloroamidine, N=C(CCl)NCCC[C@H](N[*:1])C(=O)[*:2]; Orn(fluoroacetimidoyl) = N=C(CF)NCCC[C@H](N)C(=O)O
Binarize IC50 values (µM), ABAP PAD activity assay, second round at 100 µM; below is label 1, at or above is label 0.

Lookup: hey, is IC50 values (µM), ABAP PAD activity assay, second round for TD[Orn(fluoroacetimidoyl)]GS [T-D-O(FA)-G-S] lower than 100 µM or not?
Found: label 0

Lookup: hey, is IC50 values (µM), ABAP PAD activity assay, second round for KWH[Orn(fluoroacetimidoyl)]DFF [K W H O(FA) D F F] lower than 100 µM or not?
Found: label 0

Lookup: hey, is IC50 values (µM), ABAP PAD activity assay, second round for YD[O(CA)]GS [Y-D-O(CA)-G-S] lower than 100 µM or not?
Found: label 1

Lookup: hey, is IC50 values (µM), ABAP PAD activity assay, second round for KFD[Orn(fluoroacetimidoyl)]DFI [K F D O(FA) D F I] lower than 100 µM or not?
Found: label 0

Lookup: hey, is IC50 values (µM), ABAP PAD activity assay, second round for GD[O(CA)]GS [G-D-O(CA)-G-S] lower than 100 µM or not?
Found: label 1
